# TARGET UNDER TEST: MTOR_h (Homo sapiens (Human), UniProt P42345)
Parameter: Kd. Scope: all listed entries.
Reply numerically in µM, unit not repeated.

Cc1nc2c(N)cc(N3CCOCC3)nn2c1Nc1cccc(C(F)(F)F)c1C | 20.3

API: the following record is the query input.
Recorded Kd of Cc1c(Cc2c(CO)nc3c(N)cc(N4CCOCC4)nn23)cccc1C(F)(F)F [Compound 14c] , please.
5.25

====

# TARGET UNDER TEST: PIK3Cγ_h (Homo sapiens (Human), UniProt P48736)
# Sequence (P48736 whole entry): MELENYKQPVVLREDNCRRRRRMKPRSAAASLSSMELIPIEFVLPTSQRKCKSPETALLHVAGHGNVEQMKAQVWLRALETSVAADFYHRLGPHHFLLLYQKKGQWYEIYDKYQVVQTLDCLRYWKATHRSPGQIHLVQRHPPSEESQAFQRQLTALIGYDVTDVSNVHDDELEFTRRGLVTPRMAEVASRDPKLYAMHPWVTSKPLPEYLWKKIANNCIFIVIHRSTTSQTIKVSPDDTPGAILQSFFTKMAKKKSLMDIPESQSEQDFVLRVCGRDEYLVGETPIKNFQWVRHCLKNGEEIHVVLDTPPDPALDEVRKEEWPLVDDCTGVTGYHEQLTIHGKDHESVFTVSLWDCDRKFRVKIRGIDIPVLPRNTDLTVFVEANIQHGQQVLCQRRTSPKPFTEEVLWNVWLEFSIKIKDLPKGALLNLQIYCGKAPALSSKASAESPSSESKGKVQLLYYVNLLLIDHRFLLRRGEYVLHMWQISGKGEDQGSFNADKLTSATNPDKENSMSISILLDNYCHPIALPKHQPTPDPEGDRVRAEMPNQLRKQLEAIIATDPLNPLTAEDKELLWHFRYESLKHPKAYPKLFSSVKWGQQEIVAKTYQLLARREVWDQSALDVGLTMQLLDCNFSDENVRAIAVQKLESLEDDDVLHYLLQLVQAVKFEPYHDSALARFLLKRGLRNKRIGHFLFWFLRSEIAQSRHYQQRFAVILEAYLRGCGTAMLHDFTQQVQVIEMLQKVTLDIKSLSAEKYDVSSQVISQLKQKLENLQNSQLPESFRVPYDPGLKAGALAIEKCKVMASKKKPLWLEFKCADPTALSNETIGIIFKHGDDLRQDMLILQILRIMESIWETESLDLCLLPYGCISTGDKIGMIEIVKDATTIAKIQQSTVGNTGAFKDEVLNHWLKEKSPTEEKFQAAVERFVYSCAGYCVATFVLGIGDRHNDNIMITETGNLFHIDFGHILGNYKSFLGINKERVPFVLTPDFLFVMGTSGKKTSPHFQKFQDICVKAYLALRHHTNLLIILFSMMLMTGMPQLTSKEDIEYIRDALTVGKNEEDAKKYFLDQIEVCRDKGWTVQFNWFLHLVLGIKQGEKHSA
Would you mind classing the entries by Kd? Ranges: range 1 = under 5 µM, range 2 = from 5 µM up to 10 µM, range 3 = 10 µM and over

Cc1c(Cc2c(COC(=O)C(N)Cc3ccccc3)nc3c(N)cc(N4CCOCC4)nn23)cccc1C(F)(F)F (stereo not shown) [Compound 80] | range 3
Cc1c(Cc2c(C(C)O)nc3c(-c4ncc[nH]4)cc(N4CCOCC4)nn23)cccc1C(F)(F)F (stereo not shown) [Compound 31] | range 3
Cc1nc2c(N)cc(N3CCOCC3)nn2c1Nc1cccc(C(F)(F)F)c1CNC(C)CO (stereo not shown) [Compound 56] | range 2

--- query ---
// return the class label for Cc1nc2c(C(=O)O)cc(N3CCOCC3)nn2c1Nc1cccc(C(F)(F)F)c1C [Compound 36]
range 1

====

# TARGET UNDER TEST: UniProtKB O00329
# Sequence (O00329 whole entry): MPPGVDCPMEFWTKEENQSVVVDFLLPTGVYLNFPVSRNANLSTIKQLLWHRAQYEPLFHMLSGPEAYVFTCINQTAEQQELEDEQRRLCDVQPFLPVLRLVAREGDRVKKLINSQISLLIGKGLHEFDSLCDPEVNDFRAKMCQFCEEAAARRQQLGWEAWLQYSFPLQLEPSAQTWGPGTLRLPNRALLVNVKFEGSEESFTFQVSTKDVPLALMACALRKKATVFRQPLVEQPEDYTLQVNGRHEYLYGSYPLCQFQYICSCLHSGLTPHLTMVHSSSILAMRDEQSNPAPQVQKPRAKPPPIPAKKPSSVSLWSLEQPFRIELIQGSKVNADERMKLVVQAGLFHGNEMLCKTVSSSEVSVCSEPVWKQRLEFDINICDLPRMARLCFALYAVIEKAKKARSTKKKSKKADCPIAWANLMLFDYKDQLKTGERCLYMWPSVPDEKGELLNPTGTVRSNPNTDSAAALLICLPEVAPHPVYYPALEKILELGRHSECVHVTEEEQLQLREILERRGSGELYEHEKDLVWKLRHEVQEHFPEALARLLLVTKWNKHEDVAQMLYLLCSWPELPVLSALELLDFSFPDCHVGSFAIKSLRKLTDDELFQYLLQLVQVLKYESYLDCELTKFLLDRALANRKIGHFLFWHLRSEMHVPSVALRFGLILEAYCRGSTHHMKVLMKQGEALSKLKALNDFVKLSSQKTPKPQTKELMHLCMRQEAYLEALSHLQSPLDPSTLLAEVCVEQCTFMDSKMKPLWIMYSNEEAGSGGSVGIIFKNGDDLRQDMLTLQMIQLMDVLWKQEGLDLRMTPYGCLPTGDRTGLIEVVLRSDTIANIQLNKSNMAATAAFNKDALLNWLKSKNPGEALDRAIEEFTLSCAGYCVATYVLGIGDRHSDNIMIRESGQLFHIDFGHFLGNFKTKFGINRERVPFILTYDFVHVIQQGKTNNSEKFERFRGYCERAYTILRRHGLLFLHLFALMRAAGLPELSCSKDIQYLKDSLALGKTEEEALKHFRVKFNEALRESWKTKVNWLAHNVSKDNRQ
PROPERTY LABEL: Kd (nM)
Provide the reading as a plain figure in nM.

Lookup: Kd / UniProtKB O00329 / Cc1c(Cc2c(COC(=O)C(N)C(C)C)nc3c(N)cc(N4CCOCC4)nn23)cccc1C(F)(F)F (stereo not shown)
263

What about `Cc1c(Cc2c(CO)nc3c(C(=O)O)cc(N4CCOCC4)nn23)cccc1C(F)(F)F` ?
48

Another compound: Cc1c(Cc2c(CO)nc3c(N)cc(N4CCOCC4)nn23)cccc1C(F)(F)F [Compound 14a]
225

What do we get for `Cc1c(Cc2c(CO)nc3c(-c4ccn[nH]4)cc(N4CCOCC4)nn23)cccc1C(F)(F)F` ?
240

====

Each item that follows carries a reported IC50.
# Test system: Akt phosphorylated at Thr308 in PC-3 cells
# PROTOCOL DETAILS: Cellular assay: phosphorylation of Akt (Thr308) in PC-3 cells, MSD ELISA
# Assay type: cell-based
# TEST CONTEXT: Homo sapiens, PC-3, 1 h, 60 min incubation with compound, read-out: IC50 pAkt_Thr308
Dear colleague, please return just the value in nM, with no unit written.

Known IC50 results, listed for orientation:
Cc1c(Cc2c(C(C)O)nc3c(-c4ncc[nH]4)cc(N4CCOCC4)nn23)cccc1C(F)(F)F (stereo not drawn) [Compound 31] | 22
Cc1nc2c(N)cc(N3CCOCC3)nn2c1Nc1cccc(C(F)(F)F)c1CN1CCS(=O)(=O)CC1 [Compound 43] | 170
Cc1c(F)cccc1Cc1c(CNCCO)nc2c(N)cc(N3CCOCC3)nn12 [Compound 97] | 40

Name the recorded IC50 for CC(=O)NCc1nc2c(-c3ncc[nH]3)cc(N3CCOCC3)nn2c1Cc1cccc(C(F)(F)F)c1C [Compound 18] .
11

Now the same for Cc1nc2c(N)cc(N3CCOCC3)nn2c1Nc1cccc(C(F)(F)F)c1CN1CCC(S(C)(=O)=O)CC1 [Compound 54]
98

// next record Cc1nc2c(C(N)=O)cc(N3CCOCC3)nn2c1Cc1cccc(Cl)c1C [Compound 11]
355
